Data provenance is ChEMBL document CHEMBL1795309.

Molecular target: Beta-lactamase SHV-5 (Klebsiella pneumoniae)
Sequence (P0A3M1 whole entry): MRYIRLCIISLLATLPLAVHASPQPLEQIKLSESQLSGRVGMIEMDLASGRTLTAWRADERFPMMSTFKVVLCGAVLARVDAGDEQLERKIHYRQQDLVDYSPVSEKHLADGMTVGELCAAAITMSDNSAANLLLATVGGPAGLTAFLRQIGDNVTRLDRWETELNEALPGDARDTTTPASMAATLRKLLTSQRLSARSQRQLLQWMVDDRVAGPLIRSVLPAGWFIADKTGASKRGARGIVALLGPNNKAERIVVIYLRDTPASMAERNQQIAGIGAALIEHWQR
Assay: Inhibition of Klebsiella pneumoniae beta lactamase SHV-5
pIC50: −log10 of the molar value.
Below, each entry is listed with its recorded pIC50.

For N#Cc1ccc(OP(=O)([O-])CNC(=O)/C(=N\OCCC[n+]2ccccc2)c2cccs2)cc1F (stereo in doubt; 6b) , what is its reported pIC50?
< 4.30

One more compound: CO/N=C(/C(=O)NCP(=O)(O)Oc1ccc(C#N)c(F)c1)c1cccs1
4.66

One more compound: N#Cc1ccc(OP(=O)(O)CNC(=O)C(=NO)c2cccs2)cc1F
4.57

====

Below, each entry is listed with its recorded pIC50.
Assay: Inhibition of Pseudomonas aeruginosa beta lactamase TEM-1
For clarity, pIC50 is expressed as the negative log10 of concentration in mol/L.

For N#Cc1ccc(OP(=O)(O)CNC(=O)C(=NO)c2cccs2)cc1F , what is its reported pIC50?
4.64

One more compound: N#Cc1ccc(OP(=O)([O-])CNC(=O)/C(=N\OCCC[n+]2ccccc2)c2cccs2)cc1F (stereo in doubt; 6a)
4.77

One more compound: CO/N=C(/C(=O)NCP(=O)(O)Oc1ccc(C#N)c(F)c1)c1ccc(Cl)s1
4.80

====

Experiment: Half life in mouse at 2.5 mg/kg, iv
Format: ADME, organism-based
Set-up: dose 2.5 mg/kg, route intravenous
Conditions: in vivo
MEASURE_NAME: half-life (min)
Just the number please, in min, no unit attached.

For CO/N=C(/C(=O)NCP(=O)(O)Oc1ccc(C#N)c(F)c1)c1cccs1 , what is its reported half-life?
32.4

====

Target: Beta-lactamase (Pseudomonas aeruginosa (strain ATCC 15692 / PAO1 / 1C / PRS 101 / LMG12228))
Sequence (P24735 whole entry): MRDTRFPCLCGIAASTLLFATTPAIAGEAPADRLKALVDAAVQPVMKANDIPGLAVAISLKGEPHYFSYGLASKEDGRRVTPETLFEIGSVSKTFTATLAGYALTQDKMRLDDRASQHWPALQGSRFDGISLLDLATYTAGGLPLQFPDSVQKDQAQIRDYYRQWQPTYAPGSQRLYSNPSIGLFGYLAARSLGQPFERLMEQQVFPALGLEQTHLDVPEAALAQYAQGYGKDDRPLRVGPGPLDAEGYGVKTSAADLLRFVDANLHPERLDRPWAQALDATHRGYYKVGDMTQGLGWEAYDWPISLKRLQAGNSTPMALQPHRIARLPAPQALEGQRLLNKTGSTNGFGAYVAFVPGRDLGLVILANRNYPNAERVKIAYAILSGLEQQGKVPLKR
Assay: Inhibition of Pseudomonas aeruginosa beta lactamase AmpC
MEASURE_NAME: pIC50
For clarity, pIC50 is expressed as the negative log10 of concentration in mol/L.

molecule="N#Cc1ccc(OP(=O)([O-])CNC(=O)/C(=N\\OCCC[n+]2ccccc2)c2cccs2)cc1F (stereo in doubt; 6a)" measure_name=pIC50 reported_measurement=7.68
molecule="N#Cc1ccc(OP(=O)([O-])CNC(=O)/C(=N\\OCCC[n+]2ccccc2)c2cccs2)cc1F (stereo in doubt; 6b)" measure_name=pIC50 reported_measurement=7.06
molecule=CO/N=C(\C(=O)NCP(=O)(O)O)c1cccs1 measure_name=pIC50 reported_measurement=5.19
molecule=CO/N=C(\C(=O)NCP(=O)(O)Oc1ccc(C#N)c(F)c1)c1cnc(N)s1 measure_name=pIC50 reported_measurement=5.82
molecule="CO/N=C(\\C(=O)NCP(=O)(O)Oc1ccc(C#N)c(F)c1)c1cnc(NC(=O)C(Cl)(Cl)Cl)s1 (stereo in doubt; 2a)" measure_name=pIC50 reported_measurement=5.52

For N#Cc1ccc(OP(=O)(O)CNC(=O)C(=NO)c2cccs2)cc1F , what is its reported pIC50?
6.70

One more molecule: CO/N=C(/C(=O)NCP(=O)(O)Oc1ccc(C#N)c(F)c1)c1ccc(Cl)s1
8.30

One more molecule: CO/N=C(/C(=O)NCP(=O)(O)O)c1cccs1
5.49

One more molecule: CO/N=C(/C(=O)NCP(=O)(O)Oc1ccc(C#N)c(F)c1)c1cccs1
8.12

One more molecule: CON=C(C(=O)NCP(=O)(O)Oc1ccc(C#N)c(F)c1)c1cccs1
8.02

One more molecule: CO/N=C(\C(=O)NCP(=O)(O)Oc1ccc(C#N)c(F)c1)c1cnc(NC(=O)C(Cl)(Cl)Cl)s1 (stereo in doubt; 2b)
5.52

One more molecule: CO/N=C(\C(=O)NCP(=O)(O)Oc1ccc(C#N)c(F)c1)c1cccs1
7.34

====

Biological target: Beta-lactamase (Enterobacter cloacae, UniProt P05364)
Sequence (P05364 whole entry): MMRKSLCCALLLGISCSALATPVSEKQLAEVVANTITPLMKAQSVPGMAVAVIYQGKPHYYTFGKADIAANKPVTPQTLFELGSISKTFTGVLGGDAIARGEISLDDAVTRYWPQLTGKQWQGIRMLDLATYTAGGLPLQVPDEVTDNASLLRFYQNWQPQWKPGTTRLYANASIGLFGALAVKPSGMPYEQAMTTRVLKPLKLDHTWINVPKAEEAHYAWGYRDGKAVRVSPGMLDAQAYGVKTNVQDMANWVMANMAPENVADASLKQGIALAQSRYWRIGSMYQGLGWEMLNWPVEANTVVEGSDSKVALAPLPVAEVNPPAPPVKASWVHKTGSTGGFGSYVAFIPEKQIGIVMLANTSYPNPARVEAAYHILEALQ
Test: Inhibition of Enterobacter cloacae beta lactamase P99
Binning rule for recorded IC50: bin A = under 0.09 µM, bin B = from 0.09 µM up to 0.7 µM, bin C = 0.7 µM and over

Worked set:
molecule="N#Cc1ccc(OP(=O)([O-])CNC(=O)/C(=N\\OCCC[n+]2ccccc2)c2cccs2)cc1F (stereo in doubt; 6b)" group_label="bin B"
molecule=CO/N=C(/C(=O)NCP(=O)(O)Oc1ccc(C#N)c(F)c1)c1ccc(Cl)s1 group_label="bin A"
molecule=CO/N=C(/C(=O)NCP(=O)(O)O)c1cccs1 group_label="bin C"

Which class does CON=C(C(=O)NCP(=O)(O)Oc1ccc(C#N)c(F)c1)c1cccs1 fall in?
bin A

One more molecule: CO/N=C(\C(=O)NCP(=O)(O)Oc1ccc(C#N)c(F)c1)c1cnc(N)s1
bin C

One more molecule: CO/N=C(\C(=O)NCP(=O)(O)O)c1cccs1
bin C

====

Experiment: Inhibition of Pseudomonas aeruginosa beta lactamase TEM-1
Below, each entry is listed with its recorded IC50.

Worked cases, IC50 given:
compound=CO/N=C(/C(=O)NCP(=O)(O)Oc1ccc(C#N)c(F)c1)c1cccs1 reported_measurement="28 µM"
compound=CO/N=C(\C(=O)NCP(=O)(O)Oc1ccc(C#N)c(F)c1)c1cccs1 reported_measurement="> 50 µM"
compound=CO/N=C(\C(=O)NCP(=O)(O)Oc1ccc(C#N)c(F)c1)c1cnc(N)s1 reported_measurement="> 50 µM"
compound=CO/N=C(\C(=O)NCP(=O)(O)O)c1cccs1 reported_measurement="> 50 µM"
compound="N#Cc1ccc(OP(=O)([O-])CNC(=O)/C(=N\\OCCC[n+]2ccccc2)c2cccs2)cc1F (stereo in doubt; 6b)" reported_measurement="> 50 µM"

# input for lookup
For CON=C(C(=O)NCP(=O)(O)Oc1ccc(C#N)c(F)c1)c1cccs1 , what is its reported IC50?
> 50 µM

====

Target: Beta-lactamase (Acinetobacter baumannii)
Sequence (Q8RLA6 whole entry): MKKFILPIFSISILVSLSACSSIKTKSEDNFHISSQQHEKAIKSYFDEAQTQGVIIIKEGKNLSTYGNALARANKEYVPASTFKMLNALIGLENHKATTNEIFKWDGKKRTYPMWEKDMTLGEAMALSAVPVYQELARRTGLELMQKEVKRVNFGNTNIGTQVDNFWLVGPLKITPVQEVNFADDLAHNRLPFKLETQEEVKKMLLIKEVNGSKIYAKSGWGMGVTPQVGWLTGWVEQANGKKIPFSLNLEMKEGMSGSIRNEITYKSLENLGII
Assay: Inhibition of Acinetobacter baumannii beta lactamase OXA-40
MEASURE_NAME: IC50

Worked cases, IC50 given:
molecule=CO/N=C(\C(=O)NCP(=O)(O)O)c1cccs1 reported_measurement="> 50 µM"
molecule="CO/N=C(\\C(=O)NCP(=O)(O)Oc1ccc(C#N)c(F)c1)c1cnc(NC(=O)C(Cl)(Cl)Cl)s1 (stereo in doubt; 2b)" reported_measurement="> 12.5 µM"

For N#Cc1ccc(OP(=O)([O-])CNC(=O)/C(=N\OCCC[n+]2ccccc2)c2cccs2)cc1F (stereo in doubt; 6b) , what is its reported IC50?
> 50 µM

====

Molecular target: Beta-lactamase (Acinetobacter baumannii)
Experiment: Inhibition of Acinetobacter baumannii beta lactamase OXA-40
Below, each entry is listed with its recorded IC50.

compound=CO/N=C(/C(=O)NCP(=O)(O)O)c1cccs1 reported_measurement="> 50 µM"

For CON=C(C(=O)NCP(=O)(O)Oc1ccc(C#N)c(F)c1)c1cccs1 , what is its reported IC50?
> 50 µM

One more compound: CO/N=C(\C(=O)NCP(=O)(O)Oc1ccc(C#N)c(F)c1)c1cnc(N)s1
> 50 µM

One more compound: CO/N=C(\C(=O)NCP(=O)(O)Oc1ccc(C#N)c(F)c1)c1cnc(NC(=O)C(Cl)(Cl)Cl)s1 (stereo in doubt; 2a)
> 12.5 µM

====

Molecular target: Beta-lactamase SHV-5 (Klebsiella pneumoniae)
Assay: Inhibition of Klebsiella pneumoniae beta lactamase SHV-5
MEASURE_NAME: IC50

Worked cases, IC50 given:
compound=CO/N=C(/C(=O)NCP(=O)(O)O)c1cccs1 reported_measurement="> 50 µM"
compound="N#Cc1ccc(OP(=O)([O-])CNC(=O)/C(=N\\OCCC[n+]2ccccc2)c2cccs2)cc1F (stereo in doubt; 6a)" reported_measurement="> 50 µM"
compound=CO/N=C(\C(=O)NCP(=O)(O)Oc1ccc(C#N)c(F)c1)c1cccs1 reported_measurement="> 12.5 µM"

For CON=C(C(=O)NCP(=O)(O)Oc1ccc(C#N)c(F)c1)c1cccs1 , what is its reported IC50?
> 50 µM

One more compound: CO/N=C(\C(=O)NCP(=O)(O)Oc1ccc(C#N)c(F)c1)c1cnc(NC(=O)C(Cl)(Cl)Cl)s1 (stereo in doubt; 2a)
25 µM

One more compound: CO/N=C(\C(=O)NCP(=O)(O)Oc1ccc(C#N)c(F)c1)c1cnc(N)s1
> 50 µM

One more compound: CO/N=C(\C(=O)NCP(=O)(O)Oc1ccc(C#N)c(F)c1)c1cnc(NC(=O)C(Cl)(Cl)Cl)s1 (stereo in doubt; 2b)
15 µM

One more compound: CO/N=C(\C(=O)NCP(=O)(O)O)c1cccs1
> 50 µM

====

Biological target: Beta-lactamase (Enterobacter cloacae)
Assay: Inhibition of Enterobacter cloacae beta lactamase P99
Below, each entry is listed with its recorded IC50.
Just the number please, in nM, no unit attached.

Worked cases, IC50 given:
compound=CO/N=C(/C(=O)NCP(=O)(O)Oc1ccc(C#N)c(F)c1)c1cccs1 measure_name=IC50 reported_measurement=32
compound="CO/N=C(\\C(=O)NCP(=O)(O)Oc1ccc(C#N)c(F)c1)c1cnc(NC(=O)C(Cl)(Cl)Cl)s1 (stereo in doubt; 2a)" measure_name=IC50 reported_measurement=340
compound=CO/N=C(\C(=O)NCP(=O)(O)Oc1ccc(C#N)c(F)c1)c1cccs1 measure_name=IC50 reported_measurement=100
compound=N#Cc1ccc(OP(=O)(O)CNC(=O)C(=NO)c2cccs2)cc1F measure_name=IC50 reported_measurement=100
compound="CO/N=C(\\C(=O)NCP(=O)(O)Oc1ccc(C#N)c(F)c1)c1cnc(NC(=O)C(Cl)(Cl)Cl)s1 (stereo in doubt; 2b)" measure_name=IC50 reported_measurement=710

For N#Cc1ccc(OP(=O)([O-])CNC(=O)/C(=N\OCCC[n+]2ccccc2)c2cccs2)cc1F (stereo in doubt; 6a) , what is its reported IC50?
87
